Test system: 186277-243-T-J2-PDC complex spheroids, viability
Assay Summary: Anticancer human tumor 186277-243-T-J2-PDC patient-derived colon adenocarcinoma cell line growth inhibition [RAS]
Experimental Context: curve of first compound; second compound 0.00316 µM
pIC50: −log10 of the molar value.
pIC50 listing for selected compounds.

Reference set (3 entries):
compound="Cc1nc(N2CCC3(CC2)COC(C)C3N)c(CO)nc1Sc1ccnc(N)c1Cl (centres undefined) + C=CC(=O)N1CCN(c2nc(OCC3CCCN3C)nc3c(F)c(-c4nc(N)cc(C)c4C(F)(F)F)c(Cl)cc23)C(C)C1" result="< 5.00"
compound="CC(=O)OC12COC1CC(O)C1(C)C(=O)C(O)C3=C(C)C(OC(=O)C(O)C(NC(=O)OC(C)(C)C)c4ccccc4)CC(O)(C(OC(=O)c4ccccc4)C21)C3(C)C (centres undefined) + C=CC(=O)N1CCN(c2nc(OCC3CCCN3C)nc3c(F)c(-c4nc(N)cc(C)c4C(F)(F)F)c(Cl)cc23)C(C)C1" result="> 7.50"
compound="CC(Nc1ccc2c(c1)OCCn1cc(N3C(=O)OCC3C(F)F)nc1-2)C(N)=O (centres undefined) + C=CC(=O)N1CCN(c2nc(OCC3CCCN3C)nc3c(F)c(-c4nc(N)cc(C)c4C(F)(F)F)c(Cl)cc23)C(C)C1" result=6.29

Record summary for CCN1CCN(Cc2ccc(Nc3ncc(F)c(-c4cc(F)c5nc(C)n(C(C)C)c5c4)n3)nc2)CC1 + C=CC(=O)N1CCN(c2nc(OCC3CCCN3C)nc3c(F)c(-c4nc(N)cc(C)c4C(F)(F)F)c(Cl)cc23)C(C)C1 : reported pIC50 = < 6.00

---

Test system: 186277-243-T-J2-PDC complex spheroids, viability
Assay Summary: Anticancer human tumor 186277-243-T-J2-PDC cell line growth inhibition [RAS];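 also: spheroids exposed to compounds for 7 days before viability read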
Experimental Context: second compound 0.1 µM; first compound 0.00949 µM; stronger effect = lower value
viability, T/C listing for selected compounds.
Please respond with the number in % and leave the unit unwritten.

Reference set (3 entries):
compound="CCc1c2c(nc3ccc(O)cc13)-c1cc3c(c(=O)n1C2)COC(=O)[C@]3(O)CC + C#Cc1c(F)ccc2cc(O)cc(-c3ncc4c(N5CC6CCC(C5)N6)nc(OCC56CCCN5CC(F)C6)nc4c3F)c12" number=16.6
compound="CC1(C)CCC(Nc2ncc(C(F)(F)F)c(-c3c[nH]c4c(P(C)(C)=O)c(C#N)ccc34)n2)CN1 (centres undefined) + C=CC(=O)N1CCN(c2nc(OCC3CCCN3C)nc3c(F)c(-c4nc(N)cc(C)c4C(F)(F)F)c(Cl)cc23)C(C)C1" number=120
compound="CCc1c2c(nc3ccc(O)cc13)-c1cc3c(c(=O)n1C2)COC(=O)[C@]3(O)CC + C=CC(=O)N1CCN(c2nc(OCC3CCCN3C)nc3c(F)c(-c4nc(N)cc(C)c4C(F)(F)F)c(Cl)cc23)C(C)C1" number=68.7

Record summary for CC1(C)CCC(Nc2ncc(C(F)(F)F)c(-c3c[nH]c4c(P(C)(C)=O)c(C#N)ccc34)n2)CN1 (centres undefined) + C#Cc1c(F)ccc2cc(O)cc(-c3ncc4c(N5CC6CCC(C5)N6)nc(OCC56CCCN5CC(F)C6)nc4c3F)c12 : reported viability, T/C = 55.4

Reference source for all entries: PubChem BioAssay AID2060908
